Every entry's value here was drawn from patent US20180201592A1.

# Test system: Aspergillus niger
# test_protocol: Minimum inhibitory concentration, YAG medium
# Type: cell-based
# conditions_used: banded MIC grade
Provide the reported MIC grade, A. NIGER, YAG media of each item.

Challenge: MIC grade, A. NIGER, YAG media of `CCc1cccc(COCCCCC2=NN=C(N)SC2)c1` on Aspergillus niger?
Response given: 4 (4: <0.2 mg/L)

Challenge: // query: `NC1=NN=C(COc2ccccc2)CS1`
Response given: 3 (3: 0.2-1 mg/L)

Challenge: // query: `COc1ccc(C2=NN=C(N)SC2)cc1`
Response given: 2 (2: 1-5 mg/L)

Challenge: // query: `NC1=NN=C(CCCCCOc2ccccc2)CS1`
Response given: 4 (4: <0.2 mg/L)

Challenge: // query: `COc1cccc(C2=NN=C(N)SC2)c1`
Response given: 1 (1: ≥5 mg/L)
